# experimentalSystem: full-length beta-Catenin (Uniprot ID P35222) (Homo sapiens, UniProt P35222)
# Construct: 10 nM full-length beta-Catenin (Uniprot ID P35222)
# Sequence (P35222 whole entry): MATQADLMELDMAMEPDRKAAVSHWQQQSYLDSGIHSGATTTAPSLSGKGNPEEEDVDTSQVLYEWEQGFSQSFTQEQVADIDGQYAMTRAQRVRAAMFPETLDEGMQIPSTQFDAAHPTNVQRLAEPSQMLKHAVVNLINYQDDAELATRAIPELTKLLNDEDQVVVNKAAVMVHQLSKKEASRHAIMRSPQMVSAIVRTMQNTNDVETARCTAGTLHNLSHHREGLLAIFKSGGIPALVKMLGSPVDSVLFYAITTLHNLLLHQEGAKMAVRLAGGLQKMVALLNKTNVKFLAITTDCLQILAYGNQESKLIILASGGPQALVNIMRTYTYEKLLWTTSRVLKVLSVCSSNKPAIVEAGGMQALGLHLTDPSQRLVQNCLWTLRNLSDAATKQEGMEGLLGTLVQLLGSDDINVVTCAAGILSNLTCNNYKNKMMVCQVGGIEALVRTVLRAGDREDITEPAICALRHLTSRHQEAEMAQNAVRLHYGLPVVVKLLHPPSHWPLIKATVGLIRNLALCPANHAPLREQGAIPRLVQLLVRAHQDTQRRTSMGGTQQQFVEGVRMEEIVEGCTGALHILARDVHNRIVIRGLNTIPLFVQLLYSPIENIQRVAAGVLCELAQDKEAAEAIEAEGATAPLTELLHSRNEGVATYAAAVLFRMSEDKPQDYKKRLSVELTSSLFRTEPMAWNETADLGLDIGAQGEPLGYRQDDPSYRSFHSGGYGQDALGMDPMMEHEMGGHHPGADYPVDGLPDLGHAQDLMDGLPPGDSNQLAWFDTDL
# test: Fluorescence polarization IC50 (beta-catenin / 5FAM-TCF4 10-53 competition)
# Type: binding
# conditionSet: read-out: beta-Catenin FP IC50
property: IC50 (nM)
Numbers only, in nM.

>  <molecule>
CC(=O)N1CCC[C@]12CC=CCCCC1(CCCC=CCCCCOC(=O)N3CC[C@@](C(=O)N[C@@H](Cc4ccsc4)C(=O)N[C@@H](Cc4csc5ccccc45)C(=O)N[C@@H](CCC(N)=O)C(=O)N[C@@H](C)C(N)=O)(C3)NC(=O)[C@H](CC(N)=O)NC(=O)[C@H](Cc3ccccc3)NC(=O)[C@H](C)NC(=O)[C@H](C)NC(=O)[C@H](CC(=O)O)NC(=O)[C@H](CC(=O)O)NC1=O)NC(=O)[C@H](CC(C)(C)C)NC(=O)[C@H](CC(=O)O)NC2=O (some centres unmarked) [I-826]

>  <experimentalSystem>
full-length beta-Catenin (Uniprot ID P35222) (Homo sapiens, UniProt P35222)

>  <unitString>
nM

>  <reportedValue>
15

$$$$

# ---- query molecule ----
Q) Please report the recorded IC50 for CC(=O)N1CCC[C@]12CC=CCCCC1(CCCC=CCCCOC(=O)N3CC[C@@](C(=O)N[C@@H](Cc4ccsc4)C(=O)N[C@@H](Cc4csc5ccccc45)C(=O)N[C@@H](CCC(N)=O)C(=O)N[C@@H](CCCCNC(=O)c4ccc(CN5CCOCC5)cc4)C(N)=O)(C3)NC(=O)[C@H](CC(N)=O)NC(=O)[C@H](Cc3ccccc3)NC(=O)[C@H](C)NC(=O)[C@H](C)NC(=O)[C@H](CC(=O)O)NC(=O)[C@H](CC(=O)O)NC1=O)NC(=O)[C@H](CC(C)(C)C)NC(=O)[C@H](CC(=O)O)NC2=O (some centres unmarked) .
A) 8

---

For each of the compounds below, state its IC50.
# experimentalSystem: full-length beta-Catenin (Uniprot ID P35222) (Homo sapiens, UniProt P35222)
# Construct: 10 nM full-length beta-Catenin (Uniprot ID P35222)
# test: Fluorescence polarization IC50 (beta-catenin / 5FAM-TCF4 10-53 competition)
# Format: binding
# conditionSet: fluorescence polarization; read-out: beta-Catenin FP IC50
One number for each entry, in nM.

Known IC50 results, listed for orientation:
>  <compound>
CC(=O)N1CCC[C@]12CC=CCCCC1(CCCC=CCCCOC(=O)N3CC[C@@](C(=O)N[C@@H](Cc4ccsc4)C(=O)N[C@@H](Cc4csc5ccccc45)C(=O)N[C@@H](CCC(N)=O)C(N)=O)(C3)NC(=O)[C@H](CC(C)C)NC(=O)[C@H](Cc3ccccc3)NC(=O)[C@H](C)NC(=O)[C@H](C)NC(=O)[C@H](CN(CC(=O)O)C(=O)CCCN(C)C)NC(=O)[C@H](CC(=O)O)NC1=O)NC(=O)[C@H](CC(C)(C)C)NC(=O)[C@H](CC(=O)O)NC2=O (some centres unmarked) [I-2233]

>  <experimentalSystem>
full-length beta-Catenin (Uniprot ID P35222) (Homo sapiens, UniProt P35222)

>  <IC50 (nM)>
14

$$$$
>  <compound>
CC(=O)N1CCC[C@]12CC=CCCCC1(CCCC=CCCCOC(=O)N3CC[C@@](C(=O)N[C@@H](Cc4ccsc4)C(=O)N[C@@H](Cc4csc5ccccc45)C(=O)N[C@@H](CCC(N)=O)C(N)=O)(C3)NC(=O)[C@H](CC(C)C)NC(=O)[C@H](Cc3ccccc3)NC(=O)[C@H](C)NC(=O)[C@H](C)NC(=O)[C@H](CCN(CC(=O)O)C(=O)CCCN(C)C)NC(=O)[C@H](CC(=O)O)NC1=O)NC(=O)[C@H](CC(C)(C)C)NC(=O)[C@H](CC(=O)O)NC2=O (some centres unmarked) [I-2243]

>  <experimentalSystem>
full-length beta-Catenin (Uniprot ID P35222) (Homo sapiens, UniProt P35222)

>  <IC50 (nM)>
15

$$$$
>  <compound>
CC(=O)N1CCC[C@]12CC=CCCCC1(CCCC=CCCCOC(=O)N3CC[C@@](C(=O)N[C@@H](Cc4ccccc4C(F)(F)F)C(=O)N[C@@H](Cc4csc5ccccc45)C(=O)N[C@@H](CCC(=O)N(C)C)C(N)=O)(C3)NC(=O)[C@H](CCC(=O)N(C)C)NC(=O)[C@H](Cc3ccccc3)NC(=O)[C@H](C)NC(=O)[C@H](C)NC(=O)[C@H](Cc3cccc(C(=O)O)c3)NC(=O)[C@H](CC(=O)O)NC1=O)NC(=O)[C@H](CC(C)(C)C)NC(=O)[C@H](CC(=O)O)NC2=O (some centres unmarked) [I-2535]

>  <experimentalSystem>
full-length beta-Catenin (Uniprot ID P35222) (Homo sapiens, UniProt P35222)

>  <IC50 (nM)>
11

$$$$

For every item in the list below, what is its measured IC50?
1. CC(=O)N1CCC[C@]12CC=CCCCC1(CCCC=CCCCOC(=O)N3CC[C@@](C(=O)N[C@@H](Cc4ccccc4Cl)C(=O)N[C@@H](Cc4csc5ccccc45)C(=O)N[C@@H](C)CO)(C3)NC(=O)[C@H]([C@@H](C)O)NC(=O)[C@H](Cc3ccccc3)NC(=O)[C@H](C)NC(=O)[C@H](C)NC(=O)[C@H](CC(=O)O)NC(=O)[C@H](CC(=O)O)NC1=O)NC(=O)[C@H](CC(C)(C)C)NC(=O)[C@H](CC(=O)O)NC2=O (some centres unmarked) [I-1246]
2. CC(=O)N1CCC[C@]12CC=CCCCC1(CCCC=CCCCOC(=O)N3CC[C@@](C(=O)N[C@@H](Cc4ccccc4)C(=O)N[C@@H](Cc4csc5ccccc45)C(=O)N[C@@H](CCO)C(N)=O)(C3)NC(=O)[C@H](CC(N)=O)NC(=O)[C@H](Cc3ccccc3)NC(=O)[C@H](C)NC(=O)[C@H](CCCCNC(C)C)NC(=O)[C@H](CCC(N)=O)NC(=O)[C@H](CC(=O)O)NC1=O)NC(=O)[C@H](CC1CCCCC1)NC(=O)[C@H](CC(N)=O)NC2=O (some centres unmarked) [I-2167]

A)
1. 13
2. 199

Data credit: patent US20240116985A1
